Below, each entry is listed alongside its reported TGI.
- Tested on: NCI-H226 lung
- method description: NCI tumour cell line growth inhibition, 48 h
quantity kind: TGI (µM)

[
  {
    "molecule": "C=CC(Br)(CBr)CCC(Cl)C(C)C (stereo unspecified)",
    "system tested": "NCI-H226 lung",
    "unit of measurement": "µM",
    "value operator": "=",
    "recorded number": 27.7
  },
  {
    "molecule": "C=CC1CC12C(=O)C1OC2(C)C2C(=O)c3cc4ccccc4cc3C(=O)C12 (stereo unspecified)",
    "system tested": "NCI-H226 lung",
    "unit of measurement": "µM",
    "value operator": "=",
    "recorded number": 79.8
  },
  {
    "molecule": "COC(=O)Cc1cc(O)c(C/C=C(\\C)CC/C=C(\\C)C(O)C(=O)C=C(C)C)cc1O (stereo unspecified)",
    "system tested": "NCI-H226 lung",
    "unit of measurement": "µM",
    "value operator": "=",
    "recorded number": 51.8
  },
  {
    "molecule": "Oc1[nH]c2ccccc2c1N=Nc1ccccc1Cl",
    "system tested": "NCI-H226 lung",
    "unit of measurement": "µM",
    "value operator": ">",
    "recorded number": 100
  },
  {
    "molecule": "COc1cc(C(=O)c2cc(C)c3[nH]c4ccc(Cl)cc4c3c2C)cc(OC)c1OC",
    "system tested": "NCI-H226 lung",
    "unit of measurement": "µM",
    "value operator": "=",
    "recorded number": 18.3
  },
  {
    "molecule": "CC(=O)n1nc(-c2ccccc2)n(/N=C/c2ccc([N+](=O)[O-])cc2)c1=O",
    "system tested": "NCI-H226 lung",
    "unit of measurement": "µM",
    "value operator": ">",
    "recorded number": 100
  }
]

====

- System: KM20L2 colon
- method description: NCI tumour cell line growth inhibition, 48 h
Below, each entry is listed alongside its reported TGI.

[
  {
    "compound": "O=[N+]([O-])c1nccn1CC(O)c1ccc(F)cc1 (stereo unspecified)",
    "TGI": "> 100 µM"
  },
  {
    "compound": "O=[n+]1c2c(n([O-])c3ccccc31)CCCCCCCCCC2",
    "TGI": "> 100 µM"
  },
  {
    "compound": "CC1=Nc2ccccc2C1C(Cc1ccccc1N)c1c(C)[nH]c2ccccc12 (stereo unspecified)",
    "TGI": "28.2 µM"
  },
  {
    "compound": "Cc1ccc(SC(C)/C=C/NNC2=NC(c3ccccc3)C(c3ccccc3)=NN2)cc1 (stereo unspecified)",
    "TGI": "27.6 µM"
  },
  {
    "compound": "O=C(O/N=C1/CCCC/C1=C\\c1ccccc1)c1ccccc1",
    "TGI": "> 100 µM"
  },
  {
    "compound": "O=C1CN=C(C[N+](=O)[O-])c2ccccc21",
    "TGI": "> 100 µM"
  }
]

====

Below, each entry is listed alongside its reported TGI.
- Tested on: SN12C renal
- method description: NCI tumour cell line growth inhibition, 48 h

[
  {
    "molecule": "COC(C)(C)C1=CCC(C)CC1 (centres undefined)",
    "value operator": ">",
    "TGI (µM)": 100
  },
  {
    "molecule": "NC(CCCCP(=O)(O)O)C(=O)O (centres undefined)",
    "value operator": ">",
    "TGI (µM)": 100
  },
  {
    "molecule": "Cc1nc2ccccc2c(=O)n1NC(=O)c1ccc(CS)cc1",
    "value operator": "=",
    "TGI (µM)": 70.8
  },
  {
    "molecule": "Cc1ccc(NC(=O)c2c(C)nc(=O)n3c2N(/N=C/c2ccc(Cl)cc2)CC3)cc1",
    "value operator": "=",
    "TGI (µM)": 30.6
  },
  {
    "molecule": "CC(C)C1OC23CCCCC2C(C#N)(C#N)C1(C#N)C(=N)O3 (centres undefined)",
    "value operator": "=",
    "TGI (µM)": 31.4
  },
  {
    "molecule": "COc1cc(-c2cc(=O)c3c(OC)c(OC)c(OC)c(OC)c3o2)c(OC)c(OC)c1OC",
    "value operator": ">",
    "TGI (µM)": 100
  },
  {
    "molecule": "Cc1ccc(S(=O)(=O)NCC2CCCCC2=O)cc1 (centres undefined)",
    "value operator": ">",
    "TGI (µM)": 100
  },
  {
    "molecule": "C=C(C=O)[C@@H]1C2OC(=O)C(=C)[C@@H]2CC(O)[C@@]1(C)CC (some centres undefined)",
    "value operator": "=",
    "TGI (µM)": 32.6
  },
  {
    "molecule": "CC(C)(C)OC(=O)NCC(=O)OCc1ccccc1",
    "value operator": ">",
    "TGI (µM)": 100
  }
]

====

- Tested on: UACC-257 melanoma
- method description: NCI tumour cell line growth inhibition, 48 h; in the data active = GI50 below about 0.43 µM; inactive = the rest
Outcome codes: t = active, f = inactive

[
  {
    "compound": "C[C@H]1c2cccc(O)c2C(O)=C2C(=O)[C@]3(O)C(O)=C(C(N)=O)C(=O)[C@@H](N(C)C)[C@@H]3[C@@H](O)[C@@H]21",
    "system tested": "UACC-257 melanoma",
    "discrete label": "f"
  },
  {
    "compound": "Cc1ccc(Cl)cc1Nc1nc(C(F)(F)F)ccc1C(=O)N1CCN(c2ccc(F)cc2)CC1",
    "system tested": "UACC-257 melanoma",
    "discrete label": "f"
  },
  {
    "compound": "C/C(=C\\CCc1ccoc1)CC/C=C(\\C)CCCC1=CC(=O)OC1",
    "system tested": "UACC-257 melanoma",
    "discrete label": "f"
  },
  {
    "compound": "O=S(=O)([O-])c1ccc2c(c1)-c1nc-2nc2[n-]c(nc3nc(nc4[n-]c(n1)c1ccc(S(=O)(=O)[O-])cc41)-c1cc(S(=O)(=O)[O-])ccc1-3)c1ccc(S(=O)(=O)[O-])cc21.[Cu+2].[Na+]",
    "system tested": "UACC-257 melanoma",
    "discrete label": "f"
  },
  {
    "compound": "Cn1cc(C2=C(c3ccc4ccccc4c3)C(=O)NC2=O)c2ccccc21",
    "system tested": "UACC-257 melanoma",
    "discrete label": "f"
  },
  {
    "compound": "CC(SC(C)C(=O)N/N=C/c1cccc(Cl)c1)C(=O)N/N=C\\c1cccc(Cl)c1 (stereo not given)",
    "system tested": "UACC-257 melanoma",
    "discrete label": "f"
  },
  {
    "compound": "C=C(C=O)C1CCC2(C(=O)O)CCC3(C)C(CCC4C5(C)CCC(O)C(C)(C)C5CCC43C)C12 (stereo not given)",
    "system tested": "UACC-257 melanoma",
    "discrete label": "f"
  },
  {
    "compound": "COC(=O)/C=C/c1cc(O)c2oc(-c3ccc(O)c(O)c3)c(C(=O)OC)c2c1",
    "system tested": "UACC-257 melanoma",
    "discrete label": "f"
  },
  {
    "compound": "Cc1ccc(C(SCC(N)C(=O)O)(c2ccccc2)c2ccc(C)cc2)cc1 (stereo not given)",
    "system tested": "UACC-257 melanoma",
    "discrete label": "f"
  },
  {
    "compound": "Cc1c2cccnc2c(C)c2c1c1cc(CO)ccc1n2C",
    "system tested": "UACC-257 melanoma",
    "discrete label": "f"
  },
  {
    "compound": "O=c1n(CC2CO2)c(=O)n(CC2CO2)c(=O)n1CC1CO1 (stereo not given)",
    "system tested": "UACC-257 melanoma",
    "discrete label": "f"
  },
  {
    "compound": "CC(C)c1ccc(Nc2ccc3c(OCCCN4CCN(C)CC4)cccc3n2)cc1",
    "system tested": "UACC-257 melanoma",
    "discrete label": "f"
  },
  {
    "compound": "C=C(F)C(=O)N1CCN(c2nc(OC[C@@H]3CCCN3C)nc3c2CCN(c2cccc4cccc(Cl)c24)C3)C[C@@H]1CC#N",
    "system tested": "UACC-257 melanoma",
    "discrete label": "f"
  },
  {
    "compound": "CCC[CH2][Sn]([CH2]CCC)([CH2]CCC)[O]C(=O)CC",
    "system tested": "UACC-257 melanoma",
    "discrete label": "t"
  },
  {
    "compound": "COc1cc(Nc2cn[nH]c2-c2ccc(Cl)cc2)cc(OC)c1OC",
    "system tested": "UACC-257 melanoma",
    "discrete label": "f"
  }
]
